Test: Single dose study: pharmacokinetics of pirfenidone, fasted versus fed
Format: in vivo
Conditions: human, plasma, oral, 801 mg, without food (fasted); read-out: mean absorption half life (t1/2, abs) (converted)
reported.metric: half-life

Query :: What measured half-life goes with "Cc1ccc(=O)n(-c2ccccc2)c1" ?
Result :: ~34.3 min

----------
Test: Single dose study: pharmacokinetics of pirfenidone, fasted versus fed
Assay type: in vivo
Settings: human, plasma, po, 801 mg, fed, single oral dose 3x267 mg capsules
reported.metric: AUC (ng·h/mL)
The figure you give is taken to be in ng·h/mL; do not add the unit.

Query :: What measured AUC goes with Cc1ccc(=O)n(-c2ccccc2)c1 [pirfenidone, 5-methyl-1-phenyl-2-(1H)-pyridone] ?
Result :: 64600

Sourced from patent US20110136876A1
